TEST: Pharmacokinetic evaluation of oral administration and intravenous injection in rats
Format: in vivo, SD rats
RUN_PARAMETERS: male, SD, rat, in vivo; Compound 3 in plasma, rats, intravenous injection of Compound 3 (5 mg/kg)
Structures can show the parent of a compound that is named as a salt.
ASSAY_READOUT: AUC(0-inf) (ng·h/mL)
Your answer should be a plain number; it is taken to be in ng·h/mL.

Prompt: Please report the recorded AUC(0-inf) for O=C(Nc1ncc([N+](=O)[O-])s1)c1ccccc1OP(=O)(O)O [Compound 3, phosphate monosodium salt] .
Completion: 4920

###

TEST: Pharmacokinetic evaluation of oral administration and intravenous injection in rats
Format: in vivo, SD rats
RUN_PARAMETERS: male, SD, rat, in vivo; rats, intravenous injection of Compound 3 (5 mg/kg), 0.03 h; read-out: plasma concentration of Compound 3
Structures can show the parent of a compound that is named as a salt.
ASSAY_READOUT: concentration at 0.03 h
Field note: include the unit after the figure.

Prompt: Please report the recorded concentration at 0.03 h for O=C(Nc1ncc([N+](=O)[O-])s1)c1ccccc1OP(=O)(O)O [Compound 3, phosphate monosodium salt] .
Completion: 26700 ng/mL
